Test system: Leishmania donovani
Assay: Antileishmanial activity against Leishmania donovani MHOM/SD/001S-2D promastigotes after 72 hrs by MTT assay
Format: functional, organism-based
Square brackets hold non-standard residues; d marks the D form. Peptide text beside a SMILES is read from it. Lys(Me3) = C[N+](C)(C)CCCC[C@H](N)C(=O)O
As shown below, each of these compounds has a reported LC50 value.
Answer with a number only, understood to be in nM.

Response field LC50 (Leishmania donovani) for item CC[C@H](C)[C@H](NC(=O)[C@H](CCCCN)NC(=O)[C@H](CCCC[N+](C)(C)C)NC(=O)[C@H](Cc1ccccc1)NC(=O)[C@H](CC(C)C)NC(=O)[C@H](CCCC[N+](C)(C)C)NC(=O)[C@H](Cc1c[nH]c2ccccc12)NC(=O)[C@@H](N)CCCCN)C(=O)NCC(=O)N[C@@H](C)C(=O)N[C@H](C(=O)N[C@@H](CC(C)C)C(=O)N[C@@H](CCCCN)C(=O)N[C@H](C(=O)N[C@@H](CC(C)C)C(N)=O)C(C)C)C(C)C.[Cl-].[Cl-] (H-KW[Lys(Me3)]LF[Lys(Me3)]KIGAVLKVL-NH2) : 6700

// compound CC[C@H](C)[C@H](NC(=O)[C@H](CCCCN)NC(=O)[C@H](CCCCN)NC(=O)[C@H](Cc1ccccc1)NC(=O)[C@H](CC(C)C)NC(=O)[C@H](CCCCN)NC(=O)[C@H](Cc1c[nH]c2ccccc12)NC(=O)[C@@H](N)CCCC[N+](C)(C)C)C(=O)NCC(=O)N[C@@H](C)C(=O)N[C@H](C(=O)N[C@@H](CC(C)C)C(=O)N[C@@H](CCCCN)C(=O)N[C@H](C(=O)N[C@@H](CC(C)C)C(N)=O)C(C)C)C(C)C.[Cl-] (H-[Lys(Me3)]WKLFKKIGAVLKVL-NH2) , assay Leishmania donovani, LC50 value: 2800

The compound CC[C@H](C)[C@H](NC(=O)[C@H](CCCCN)NC(=O)[C@H](CCCCN)NC(=O)[C@H](Cc1ccccc1)NC(=O)[C@H](CC(C)C)NC(=O)[C@H](CCCC[N+](C)(C)C)NC(=O)[C@H](Cc1c[nH]c2ccccc12)NC(=O)[C@@H](N)CCCCN)C(=O)NCC(=O)N[C@@H](C)C(=O)N[C@H](C(=O)N[C@@H](CC(C)C)C(=O)N[C@@H](CCCCN)C(=O)N[C@H](C(=O)N[C@@H](CC(C)C)C(N)=O)C(C)C)C(C)C.[Cl-] (H-KW[Lys(Me3)]LFKKIGAVLKVL-NH2) , tested on Leishmania donovani, showed LC50 of 3100

Next, consider the following compound.
With Leishmania donovani as the test system, CC[C@H](C)[C@H](NC(=O)[C@H](CCCCN)NC(=O)[C@H](CCCCN)NC(=O)[C@H](Cc1ccccc1)NC(=O)[C@H](CC(C)C)NC(=O)[C@H](CCCCN)NC(=O)[C@H](Cc1c[nH]c2ccccc12)NC(=O)[C@@H](N)CCCCN)C(=O)NCC(=O)N[C@@H](C)C(=O)N[C@H](C(=O)N[C@@H](CC(C)C)C(=O)N[C@@H](CCCC[N+](C)(C)C)C(=O)N[C@H](C(=O)N[C@@H](CC(C)C)C(N)=O)C(C)C)C(C)C.[Cl-] (H-KWKLFKKIGAVL[Lys(Me3)]VL-NH2) showed LC50 of 2500

====

Experiment: Selectivity index, ratio of IC50 for sheep erythrocyte to LC50 for Leishmania donovani MHOM/SD/001S-2D promastigotes
Square brackets hold non-standard residues; d marks the D form. Peptide text beside a SMILES is read from it. Lys(Me3) = C[N+](C)(C)CCCC[C@H](N)C(=O)O
The reader will find reported Selectivity Index values listed item by item below.
# output: bare number, no unit

Selectivity Index reading for CC[C@H](C)[C@H](NC(=O)[C@H](CCCCN)NC(=O)[C@H](CCCCN)NC(=O)[C@H](Cc1ccccc1)NC(=O)[C@H](CC(C)C)NC(=O)[C@H](CCCC[N+](C)(C)C)NC(=O)[C@H](Cc1c[nH]c2ccccc12)NC(=O)[C@@H](N)CCCC[N+](C)(C)C)C(=O)NCC(=O)N[C@@H](C)C(=O)N[C@H](C(=O)N[C@@H](CC(C)C)C(=O)N[C@@H](CCCCN)C(=O)N[C@H](C(=O)N[C@@H](CC(C)C)C(N)=O)C(C)C)C(C)C.[Cl-].[Cl-] (H-[Lys(Me3)]W[Lys(Me3)]LFKKIGAVLKVL-NH2) : 6.7

Record CC[C@H](C)[C@H](NC(=O)[C@H](CCCCN)NC(=O)[C@H](CCCCN)NC(=O)[C@H](Cc1ccccc1)NC(=O)[C@H](CC(C)C)NC(=O)[C@H](CCCCN)NC(=O)[C@H](Cc1c[nH]c2ccccc12)NC(=O)[C@@H](N)CCCCN)C(=O)NCC(=O)N[C@@H](C)C(=O)N[C@H](C(=O)N[C@@H](CC(C)C)C(=O)N[C@@H](CCCC[N+](C)(C)C)C(=O)N[C@H](C(=O)N[C@@H](CC(C)C)C(N)=O)C(C)C)C(C)C.[Cl-] (H-KWKLFKKIGAVL[Lys(Me3)]VL-NH2) . Reported Selectivity Index: 63

Noted for CC[C@H](C)[C@H](NC(=O)[C@H](CCCC[N+](C)(C)C)NC(=O)[C@H](CCCC[N+](C)(C)C)NC(=O)[C@H](Cc1ccccc1)NC(=O)[C@H](CC(C)C)NC(=O)[C@H](CCCCN)NC(=O)[C@H](Cc1c[nH]c2ccccc12)NC(=O)[C@@H](N)CCCCN)C(=O)NCC(=O)N[C@@H](C)C(=O)N[C@H](C(=O)N[C@@H](CC(C)C)C(=O)N[C@@H](CCCCN)C(=O)N[C@H](C(=O)N[C@@H](CC(C)C)C(N)=O)C(C)C)C(C)C.[Cl-].[Cl-] (H-KWKLF[Lys(Me3)][Lys(Me3)]IGAVLKVL-NH2) : its Selectivity Index reads 25.3

====

Experiment: Selectivity index, ratio of HC50 for sheep erythrocyte to MIC50 for Acinetobacter baumannii ATCC 19606 ATCC 19606
Assay type: functional
Square brackets hold non-standard residues; d marks the D form. Peptide text beside a SMILES is read from it. Lys(Me3) = C[N+](C)(C)CCCC[C@H](N)C(=O)O
Reported Selectivity Index values for a set of compounds
Field format: numeric only.

For orientation, consider the following solved cases.
// recorded Selectivity Index for CC[C@H](C)[C@H](NC(=O)[C@H](CCCCN)NC(=O)[C@H](CCCCN)NC(=O)[C@H](Cc1ccccc1)NC(=O)[C@H](CC(C)C)NC(=O)[C@H](CCCC[N+](C)(C)C)NC(=O)[C@H](Cc1c[nH]c2ccccc12)NC(=O)[C@@H](N)CCCC[N+](C)(C)C)C(=O)NCC(=O)N[C@@H](C)C(=O)N[C@H](C(=O)N[C@@H](CC(C)C)C(=O)N[C@@H](CCCCN)C(=O)N[C@H](C(=O)N[C@@H](CC(C)C)C(N)=O)C(C)C)C(C)C.[Cl-].[Cl-] (H-[Lys(Me3)]W[Lys(Me3)]LFKKIGAVLKVL-NH2) : 30

The compound identified as CC[C@H](C)[C@H](NC(=O)[C@H](CCCC[N+](C)(C)C)NC(=O)[C@H](CCCC[N+](C)(C)C)NC(=O)[C@H](Cc1ccccc1)NC(=O)[C@H](CC(C)C)NC(=O)[C@H](CCCCN)NC(=O)[C@H](Cc1c[nH]c2ccccc12)NC(=O)[C@@H](N)CCCCN)C(=O)NCC(=O)N[C@@H](C)C(=O)N[C@H](C(=O)N[C@@H](CC(C)C)C(=O)N[C@@H](CCCCN)C(=O)N[C@H](C(=O)N[C@@H](CC(C)C)C(N)=O)C(C)C)C(C)C.[Cl-].[Cl-] (H-KWKLF[Lys(Me3)][Lys(Me3)]IGAVLKVL-NH2) registered its Selectivity Index at 51.5

Note to self: Selectivity Index recorded for CC[C@H](C)[C@H](NC(=O)[C@H](CCCC[N+](C)(C)C)NC(=O)[C@H](CCCCN)NC(=O)[C@H](Cc1ccccc1)NC(=O)[C@H](CC(C)C)NC(=O)[C@H](CCCCN)NC(=O)[C@H](Cc1c[nH]c2ccccc12)NC(=O)[C@@H](N)CCCCN)C(=O)NCC(=O)N[C@@H](C)C(=O)N[C@H](C(=O)N[C@@H](CC(C)C)C(=O)N[C@@H](CCCCN)C(=O)N[C@H](C(=O)N[C@@H](CC(C)C)C(N)=O)C(C)C)C(C)C.[Cl-] (H-KWKLFK[Lys(Me3)]IGAVLKVL-NH2) was 86.3

Summary for this compound, CC[C@H](C)[C@H](NC(=O)[C@H](CCCCN)NC(=O)[C@H](CCCC[N+](C)(C)C)NC(=O)[C@H](Cc1ccccc1)NC(=O)[C@H](CC(C)C)NC(=O)[C@H](CCCCN)NC(=O)[C@H](Cc1c[nH]c2ccccc12)NC(=O)[C@@H](N)CCCCN)C(=O)NCC(=O)N[C@@H](C)C(=O)N[C@H](C(=O)N[C@@H](CC(C)C)C(=O)N[C@@H](CCCCN)C(=O)N[C@H](C(=O)N[C@@H](CC(C)C)C(N)=O)C(C)C)C(C)C.[Cl-] (H-KWKLF[Lys(Me3)]KIGAVLKVL-NH2) : Selectivity Index is 112.2

The compound CC[C@H](C)[C@H](NC(=O)[C@H](CCCCN)NC(=O)[C@H](CCCCN)NC(=O)[C@H](Cc1ccccc1)NC(=O)[C@H](CC(C)C)NC(=O)[C@H](CCCCN)NC(=O)[C@H](Cc1c[nH]c2ccccc12)NC(=O)[C@@H](N)CCCCN)C(=O)NCC(=O)N[C@@H](C)C(=O)N[C@H](C(=O)N[C@@H](CC(C)C)C(=O)N[C@@H](CCCC[N+](C)(C)C)C(=O)N[C@H](C(=O)N[C@@H](CC(C)C)C(N)=O)C(C)C)C(C)C.[Cl-] (H-KWKLFKKIGAVL[Lys(Me3)]VL-NH2) showed Selectivity Index equal to 74.9

Could you now consider this next compound?
Looking up CC[C@H](C)[C@H](NC(=O)[C@H](CCCCN)NC(=O)[C@H](CCCC[N+](C)(C)C)NC(=O)[C@H](Cc1ccccc1)NC(=O)[C@H](CC(C)C)NC(=O)[C@H](CCCC[N+](C)(C)C)NC(=O)[C@H](Cc1c[nH]c2ccccc12)NC(=O)[C@@H](N)CCCCN)C(=O)NCC(=O)N[C@@H](C)C(=O)N[C@H](C(=O)N[C@@H](CC(C)C)C(=O)N[C@@H](CCCCN)C(=O)N[C@H](C(=O)N[C@@H](CC(C)C)C(N)=O)C(C)C)C(C)C.[Cl-].[Cl-] (H-KW[Lys(Me3)]LF[Lys(Me3)]KIGAVLKVL-NH2) , I found its Selectivity Index recorded as 58.6
